Values were extracted from PubChem BioAssay.

- Tested on: TRPC4 beta (transient receptor potential cation channel C4), mouse
- assay remarks: potentiation of DAMGO EC20 TRPC4 response – cell-based, Fluo-4, HEK293 TRPC4beta/mu-opioid, confirmation (AID 2555)
- condition description: DAMGO EC20, Fluo-4 calcium flux, at 10 µM
Activity calls are given as the source filed them.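 How the source made its calls: active means primary screen hit whose calcium fluorescence ratio, in both repeats, exceeds the weak agonist control mean by 3 SD; inactive means the rest.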
Write down the outcome that applies. Available outcomes: active, inactive

[in] Just curious, what result did Cc1ccccc1CN1CCCC(C(=O)Nc2ccccc2Oc2cccnc2)C1 (stereo not given) get here?
[out] inactive

[in] Just curious, what result did `O=C(NCc1ccccc1)C1=C[C@H](c2ccccc2)C[C@H](OCc2ccc(CO)cc2)O1` get here?
[out] inactive

[in] Just curious, what result did `CC(=O)n1cc([C@@H]2C=C(C(=O)NCc3ccccc3)O[C@H](OCc3ccc(CO)cc3)C2)c2ccccc21` get here?
[out] inactive

[in] Just curious, what result did `CCCCN(CC)CCCNC(=O)c1cc2cc3ccc(C)cc3nc2o1` get here?
[out] inactive

[in] Just curious, what result did `COc1ccc(Cl)c2sc(N(CCN(C)C)C(=O)c3ccc4c(c3)OCCO4)nc12` get here?
[out] active

[in] Just curious, what result did `Cc1nn(-c2nc3ccccc3n2Cc2ccccc2)c2c1C(=O)CC(C)(C)C2` get here?
[out] inactive

[in] Just curious, what result did `Cc1cc2nc(CSc3ccc(Cl)cc3)cc(=O)n2[nH]1` get here?
[out] inactive

[in] Just curious, what result did `CCCCn1c(SCC(=O)OCC)nc2c(sc(=S)n2-c2ccccc2OC)c1=O` get here?
[out] inactive

[in] Just curious, what result did `CC(=O)n1cc([C@H]2C=C(C(=O)NCc3ccccc3)O[C@@H](OCc3ccc(CO)cc3)C2)c2ccccc21` get here?
[out] inactive

[in] Just curious, what result did N#Cc1ccc(OCC(O)CN2CCN(c3ncc(C(F)(F)F)cc3Cl)CC2)cc1 (stereo not given) get here?
[out] inactive
